System: Tov-21-G
EXPERIMENT_SUMMARY: Primary qHTS to identify gynecologic anti-cancer compounds using libraries of approved drugs and bioactive compounds (AID 1345084); also: % is scaled to controls: 0 for no effect and ±100 for the full control effect; nearly all actives have a fitted effect of over 55% in size
CONDITION_PARAMETERS: Gynecologic cancer cell panel viability, ATPlite luminescence, 48 h; series mostly up to 57.5 µM
Records with an inconclusive call do not appear. Calls of active or inactive are those of the source. Calls follow the shape of the dose curve; as a rule, active = well fitted cell-killing curve with a large enough effect; inconclusive = small, poorly fitted or top-dose-only effect, or effect the other way; inactive = flat fitted curve, though single readings scatter.
VALUE_TYPE: activity change, negative = cytotoxicity

Here's what some known entries look like.
COMPOUND: CCN=C1N[C@@H]2[C@@H](O)[C@H](O)[C@@H](CO)O[C@@H]2S1
activity change, negative = cytotoxicity: inactive
--
COMPOUND: C[C@@H]1O[C@@H](O[C@@H]2[C@@H](O)[C@H](O[C@@H]3[C@@H](O)[C@@H](O)[C@H](O[C@H]4[C@H](OC(=O)[C@]56CCC(C)(C)C[C@H]5C5=CCC7[C@@]8(C)C[C@H](O)[C@H](O[C@@H]9O[C@H](C(=O)O)[C@@H](O)[C@H](O)[C@H]9O)[C@@](C)(CO)C8[C@H](O)C[C@@]7(C)[C@]5(C)C[C@H]6O)O[C@@H](CO)[C@@H]4O)O[C@H]3C)OC[C@H]2O)[C@H](O)[C@H](O)[C@H]1O (stereo partly specified)
activity change, negative = cytotoxicity: 2.22% [at 6.55 µM] (inactive)
--
COMPOUND: CC(C)C1(O)C=C2C(=O)CC3C(C)(C(=O)O)CCCC3(C)C2CC1 (stereo unspecified)
activity change, negative = cytotoxicity: inactive
--
COMPOUND: COCCCc1sc(-c2ccccc2)nc1C(=O)Nc1ccccc1-c1nc2cc(CN3CCCC3)cnc2s1
activity change, negative = cytotoxicity: inactive
--
COMPOUND: Cc1ccc(COC(=O)N2CC[C@@H](CNc3ncccn3)[C@@H](F)C2)cc1
activity change, negative = cytotoxicity: inactive

Consider now this further compound.
Recorded activity change, negative = cytotoxicity of "Cc1ncc([N+](=O)[O-])n1C[C@H](O)CN1CCOCC1" , please.
inactive

###

System: SKOV3
EXPERIMENT_SUMMARY: Primary qHTS to identify gynecologic anti-cancer compounds using libraries of approved drugs and bioactive compounds (AID 1345084); also: % is scaled to controls: 0 for no effect and ±100 for the full control effect; nearly all actives have a fitted effect of over 55% in size
CONDITION_PARAMETERS: Gynecologic cancer cell panel viability, ATPlite luminescence, 48 h; series mostly up to 57.5 µM
Results filed as inconclusive are left out. The source made the active and inactive calls. Calls follow the shape of the dose curve; as a rule, active = well fitted cell-killing curve with a large enough effect; inconclusive = small, poorly fitted or top-dose-only effect, or effect the other way; inactive = flat fitted curve, though single readings scatter. Where a SMILES comes first, the peptide text is derived from it. The star is where a group is joined. AMC = Cc1cc(=O)oc2cc(N*)ccc12; Cbz = O=C(OCc1ccccc1)*
VALUE_TYPE: activity change, negative = cytotoxicity

COMPOUND: OC[C@H]1O[C@@H](OCc2ccccc2)[C@H](O[C@@H]2OC[C@@H](O)[C@H](O)[C@H]2O)[C@@H](O)[C@@H]1O
activity change, negative = cytotoxicity: inactive

COMPOUND: C/C=C1/[C@H](O[C@@H]2O[C@H](CO)[C@@H](O)[C@H](O)[C@H]2O)OC=C(C(=O)OC)[C@H]1CC(=O)OCCc1ccc(OC(=O)C[C@@H]2C(C(=O)OC)=CO[C@@H](O[C@@H]3O[C@H](CO)[C@@H](O)[C@H](O)[C@H]3O)/C2=C/C)cc1
activity change, negative = cytotoxicity: 0% [at 11.6 µM] (inactive)

COMPOUND: CC(=O)OCC1OC(OC2COC(OC3COC(OC4C(OC5C(CO)OC(OC6CCC7(C)C(CCC8(C)C7CC=C7C9CC(C)(C)CCC9(C(=O)OC9OC(CO)C(O)C(O)C9OC9OCC(OC%10OCC(O)(CO)C%10O)C(O)C9O)C(O)CC78C)C6(C)C)C(O)C5O)OCC(O)C4O)C(O)C3O)C(O)C2O)C(OC(=O)/C=C/c2ccccc2)C(O)C1OC(C)=O (stereo not given)
activity change, negative = cytotoxicity: 14.7% [at 6.55 µM] (inactive)

COMPOUND: COc1cc(CC2COC(c3ccc(OC4OC(CO)C(O)C(O)C4O)c(OC)c3)C2CO)ccc1O (stereo not given)
activity change, negative = cytotoxicity: inactive

COMPOUND: CC(C)=CCC[C@@](C)(O)[C@H]1CC[C@]2(C)[C@@H]1[C@H](O)CC1[C@@]3(C)CC[C@H](O[C@@H]4O[C@H](CO)[C@@H](O)[C@H](O)[C@H]4O[C@@H]4O[C@H](CO)[C@@H](O)[C@H](O)[C@H]4O)C(C)(C)[C@@H]3CC[C@]12C (stereo not given in full)
activity change, negative = cytotoxicity: inactive

Look up activity change, negative = cytotoxicity for this compound: C[C@@H]1O[C@@H](O[C@@H]2[C@@H](O)[C@H](O[C@@H]3[C@@H](O)[C@@H](O)[C@H](O[C@H]4[C@H](OC(=O)[C@]56CCC(C)(C)C[C@H]5C5=CCC7[C@@]8(C)C[C@H](O)[C@H](O[C@@H]9O[C@H](C(=O)O)[C@@H](O)[C@H](O)[C@H]9O)[C@@](C)(CO)C8[C@H](O)C[C@@]7(C)[C@]5(C)C[C@H]6O)O[C@@H](CO)[C@@H]4O)O[C@H]3C)OC[C@H]2O)[C@H](O)[C@H](O)[C@H]1O (stereo not given in full)
-4.92% [at 6.55 µM] (inactive)

Entry under review: "Cc1cc(C)c2nc(-c3ccccn3)cc(C(=O)Nc3ccc(S(=O)(=O)Nc4onc(C)c4C)cc3)c2c1" . Reported activity change, negative = cytotoxicity?
inactive

# query: activity change, negative = cytotoxicity of entry Cc1cc(=O)oc2cc(NC(=O)[C@H](CCC(=O)O)NC(=O)[C@H](CC(C)C)NC(=O)[C@H](CC(C)C)NC(=O)OCc3ccccc3)ccc12 (Cbz-Leu-Leu-Glu-{AMC})
inactive

Fill blank: measured activity change, negative = cytotoxicity of the compound CC(=O)NC(Cc1ccccc1)C(=O)NC(C(=O)O)C(C)C (stereo not drawn) (Ac-Phe-Val-OH; configuration not given here) is ____.
inactive

Please give the measured activity change, negative = cytotoxicity for this compound: CC(C)Oc1ccc(-c2nc(-c3cccc4c3CCC4NCCC(=O)O)no2)cc1C#N (stereo not given)
inactive
